Each recorded value in this set is attributed to patent US9445594B2.

Tested on: Cabbage Looper (Trichoplusia ni, TRIPNI) ("CL")
Test: Bioassays on CL, 128-well diet tray assay
Format: in vivo
Details: 168 h, second instar larvae, 50 μg/cm^2 on artificial diet, 25° C., five to seven days, average of eight wells, read-out: CL % Control (or Mortality) rating
Measured mortality at 50 µg/cm2, listed per entry for reference.
# value in %; strip the unit string

Example entries and their recorded answers appear below.
molecule: O=C(NCCCc1ccc(-c2ncn(-c3ccc(OC(F)(F)F)cc3)n2)cc1)Nc1cccc(-c2ccccc2)c1 [P7]
mortality at 50 µg/cm2, %: 0
--
molecule: Cc1ccc(NC(=O)NCc2ccc(-c3ncn(-c4ccc(OC(F)(F)F)cc4)n3)cc2)cc1 [F102]
mortality at 50 µg/cm2, %: 0
--
molecule: COc1ccc(NC(=O)NCc2ccc(-c3ncn(-c4ccc(OC(F)(F)F)cc4)n3)cc2)cc1 [F109]
mortality at 50 µg/cm2, %: 0

Query the reported mortality at 50 µg/cm2 for Cabbage Looper (Trichoplusia ni, TRIPNI) ("CL"); item: FC(F)(F)Oc1ccc(-n2cnc(-c3ccc(NC(=S)Nc4ncccc4-c4ccccc4)cc3)n2)cc1 [F50]
0

Query the reported mortality at 50 µg/cm2 for Cabbage Looper (Trichoplusia ni, TRIPNI) ("CL"); item: COc1cccc(NC(=O)NCc2ccc(-c3ncn(-c4ccc(OC(F)(F)F)cc4)n3)cc2)c1 [F107]
0

Query the reported mortality at 50 µg/cm2 for Cabbage Looper (Trichoplusia ni, TRIPNI) ("CL"); item: Cc1cccc(NC(=O)NCCCCc2ccc(-c3ncn(-c4ccc(OC(F)(F)F)cc4)n3)cc2)c1 [F91]
0
